- Test system: Kunming mice
- experiment.description: Hot-plate test in mice
- Format: in vivo
- condition.notes: 10 mg/kg S.c., 1 h post dose, hot plate 55° C.
# Percentage increase in pain threshold annotations
Please state the figure in %; there is no need to write the unit.

Here are 3 molecules together with their reported answers.
{"molecule": "C[C@@H]([C@H](O)c1ccccc1)N1CCN(c2cccc(C(F)(F)F)c2)CC1 (racemic)", "target.or.system": "Kunming mice", "result.value": 4.53}
{"molecule": "C[C@@H]([C@H](O)c1ccc(NS(C)(=O)=O)cc1)N1CCN(c2cccc(C(F)(F)F)c2)CC1 (racemic)", "target.or.system": "Kunming mice", "result.value": 59.02}
{"molecule": "COc1ccccc1N1CCN([C@H](C)[C@H](O)c2ccccc2)CC1 [III-2]", "target.or.system": "Kunming mice", "result.value": 72.91}

Please look at the following molecule next.
Prompt line: Quick one: Percentage increase in pain threshold for COc1ccc([C@@H](O)[C@H](C)N2CCN(c3ccccc3OC)CC2)cc1 (racemic) ?
Response line: 16.19

From: patent US8778948B2
